biological target: thrombin (UniProt P00734;P00734 P00734:328-363,P00734:364-622); assay: half-maximum effect, fluorescence decrease, TBB (20 mM Tris-HCl, 140 mM NaCl, 5 mM KCl, 1 mM MgCl2, 1 mM CaCl2, pH 7.5)
pEC50: −log10 of the molar value.
property: pEC50

Which pEC50 reading was recorded for the binder TTTTTGGTTGGTGTGGTTGG (ssDNA) [G15D5ndMB] ?
~7.10
